# assay-info: Cytotoxicity against human HepG2.2.15 cells assessed as reduction in cell viability after 3 days by MTS assay
# condition-info: read-out: TC50
I'd appreciate it if you marked entries T when CC50 at 72 h is lower than 400 µM and F when it is not.

# example entries with known answers
| smiles-structure | discrete-label |
| --- | --- |
| C=C1C[C@@]23CC[C@H]4[C@@](C)(CCC[C@@]4(C)NC(=O)NCCCC)[C@@H]2CC[C@]1(O)C3 | F |
| C=C1C[C@@]23CC[C@H]4[C@@](C)(CCC[C@@]4(C)NC(=O)c4ccc(I)cc4)[C@@H]2CC[C@]1(O)C3 | F |
| C=C1C[C@@]23CC[C@H]4[C@@](C)(CCC[C@@]4(C)N)[C@@H]2CC[C@]1(O)C3 | T |
| C=C1C[C@@]23CC[C@H]4[C@@](C)(CCC[C@@]4(C)NC(=O)c4ccc(C#N)cc4)[C@@H]2CC[C@]1(O)C3 | T |
| C=C1C[C@@]23CC[C@H]4[C@@](C)(CCC[C@@]4(C)N=C=O)[C@@H]2CC[C@]1(O)C3 | T |
| C=C1C[C@@]23CC[C@H]4[C@@](C)(CCC[C@@]4(C)C(=O)O)[C@@H]2CC[C@]1(O)C3 | F |

Quick check: CC50 at 72 h of O=c1[nH]cc(F)c(=O)[nH]1 under 400 µM?
T

Quick check: CC50 at 72 h of Nc1ccn([C@@H]2CS[C@H](CO)O2)c(=O)n1 under 400 µM?
F

Quick check: CC50 at 72 h of C=C1C[C@@]23CC[C@H]4[C@@](C)(CCC[C@@]4(C)NC(=O)c4ccc(OCC)cc4)[C@@H]2CC[C@]1(O)C3 under 400 µM?
T

---

Entries and their measured pIC50 follow.
# assay-info: Antiviral activity against Hepatitis B virus in human HepG2.2.15 cells assessed as inhibition of viral DNA replication by RT-PCR method
Just the number, please; pIC50 means minus log10 of the concentration in mol/L.

Some solved cases for reference:
| smiles-structure | pIC50 |
| --- | --- |
| C=C1C[C@@]23CC[C@H]4[C@@](C)(CCC[C@@]4(C)NC(=O)c4ccc(I)cc4)[C@@H]2CC[C@]1(O)C3 | 4.66 |
| Nc1ccn([C@@H]2CS[C@H](CO)O2)c(=O)n1 | 3.97 |
| C=C1C[C@@]23CC[C@H]4[C@@](C)(CCC[C@@]4(C)NC(=O)c4ccc(OCC)cc4)[C@@H]2CC[C@]1(O)C3 | 5.40 |
| C=C1C[C@@]23CC[C@H]4[C@@](C)(CCC[C@@]4(C)NC(=O)c4ccc(C#N)cc4)[C@@H]2CC[C@]1(O)C3 | 5.05 |

Now turn to the next compound.
Given the entry C=C1C[C@@]23CC[C@H]4[C@@](C)(CCC[C@@]4(C)N)[C@@H]2CC[C@]1(O)C3 , report its measured pIC50.
4.45

---

# assay-info: Selectivity index, ratio of TC50 for human HepG2.2.15 cells to IC50 for Hepatitis B virus subtype adw2 infected in human HuH7 cells assessed as inhibition of HBsAg secretion
endpoint-label: selectivity ratio
Answer with a bare number; do not write a unit.

Some solved cases for reference:
| smiles-structure | numeric-readout |
| --- | --- |
| C=C1C[C@@]23CC[C@H]4[C@@](C)(CCC[C@@]4(C)N)[C@@H]2CC[C@]1(O)C3 | 5.5 |
| C=C1C[C@@]23CC[C@H]4[C@@](C)(CCC[C@@]4(C)N=C=O)[C@@H]2CC[C@]1(O)C3 | 17.6 |
| C=C1C[C@@]23CC[C@H]4[C@@](C)(CCC[C@@]4(C)NC(=O)c4ccc(C#N)cc4)[C@@H]2CC[C@]1(O)C3 | 15.1 |
| C=C1C[C@@]23CC[C@H]4[C@@](C)(CCC[C@@]4(C)NC(=O)c4ccc(I)cc4)[C@@H]2CC[C@]1(O)C3 | 29.1 |
| C=C1C[C@@]23CC[C@H]4[C@@](C)(CCC[C@@]4(C)NC(=O)NCCCC)[C@@H]2CC[C@]1(O)C3 | 41.4 |

Given the entry C=C1C[C@@]23CC[C@H]4[C@@](C)(CCC[C@@]4(C)C(=O)O)[C@@H]2CC[C@]1(O)C3 , report its measured selectivity ratio.
22.8

Given the entry C=C1C[C@@]23CC[C@H]4[C@@](C)(CCC[C@@]4(C)NC(=O)c4ccc(OCC)cc4)[C@@H]2CC[C@]1(O)C3 , report its measured selectivity ratio.
20.9

Values from ChEMBL document CHEMBL3997773
